# Assay summary: yeast display, Sf9 membrane polyspecificity reagent, FACS + sequencing; frameworks hold sequencing errors

# Sequence entry, polyreactivity (PSR sort gate)
rows = [
    ("QVQLVESGGGLVQAGGSLRLSCAASGRTFAWYAMGWYRQAPGKERELVAAISWSSDTTYYADSVKGRFTITRDNAKNTVYLQMNSLKPEETAVYYCAAVFQGYTRKYYYWGQGTQVTVSS", "high polyreactivity"),
    ("QVQLVESGGGLVQAGGSLRLSCAASGYTFKTNDMGRYRQAPGKEREFVAAIDSGGNTYYADSVKGRFTISRDNAKNTVYLQMNSVKPEDTAVYYCGAYRDYQYDYWGQGTQVTVSS", "low polyreactivity"),
    ("QVQLVESGGGLVQAGGSLRLSCAASGRTFTGYAMGWYRQAPGKERELVAAISSRVGSTYYADSVKGRFTISRDNAKNTVYLQMNSLKPEDTAVYYCAKDSQSYTREAYYYWGQGTQVTVSS", "low polyreactivity"),
    ("QVQLVESGGGLVQAGGSLRLSCAASGSTFQTYAMGWYRQAPGKERELVASIDYSGGSTYYADSVKGRFTISRDNAKNTVYLQMNSLKPEDTAVYYCAADLSSDSSYSGYDYWGQGTQVTVSS", "low polyreactivity"),
    ("QVQHVESGGGLVQAGGSLRLSCAASGFTFPSYAMGWYRQAPGKERELVAGISRGGTRTYYADSVKGRFTISRDNAKNTVYLQMYSLKPEDTAVYYCAATHGLRIRFPGDYWGQGTQVTVSS", "high polyreactivity"),
    ("QVQLVESGGGLVQAGGSLRLSCAASGSTFYRYAMGWYRQAPGKERELVAAISSDGTTYYADSVKGRFTISRDNAKNTVYLQMNCLNPVDTAVYYCAKERSRYYPYDYWGQGTQVTVSS", "high polyreactivity"),
    ("QVQLVESGGGLVKAGGSLRLSCAASGLISYPYSMGWYRQSPWKERELVAAITSRGTSTYYADSVKGRFTISRDNAKYTVYLHMNSLKPEDTAVYYCNAVVWRSRVDYYYWGQGTQVTVSS", "high polyreactivity"),
    ("QVQLVESGGGLVQAGGSLRLSCAASGRIFDQYALGWYRQAPRKESELVAFINRGGSTNYADSVKGRFTISRDNAKNTVYLQMNSLKPEDTEVYYCAADGDYYVESQTGHTYYYWGQGTQVTVSS", "low polyreactivity"),
    ("QVQLVESGGGLVQAGGSLRLSCAASGYIFHYNTMGWYRQAPGKERELVAAITWSGGNTYYADSVKGRFTISRDNAKNTVYLQMNSLKPEDTAVYYFAKLNYSPEATRSNYWGQGTQVTVSS", "low polyreactivity"),
    ("QVQLVESGGGLVQAGGSLRLSCAASGSTFRPYAMGWYRPAPGKEREFVASISNTGGSTSYADSVKGRFTISRDNAMNTVYFQMNSLKPEDTAVYYCAARFGYRPWYRMDYWGQGTQVAVSS", "high polyreactivity"),
    ("QVQLVDSGGGLVQAAGSLRLSCAASGSTFVTYAMGGYRTAPGKERELVAAISSGAGTNYADSVKGRFTISRDNAKNTVYLQMNSLKPEDTAVDYCAADKAVGDSTRYYYWGQGTQVTVSS", "low polyreactivity"),
    ("QVQLVESGGGLVQAGGSLRLSCAASGFTFSRYAMGWYRQAPGKERELVAAISYSGGRTYYADSVKGRFTISRDNAKNTVYLQMKSLKPEDTAVYYCNAFFTSSGWRLGYDYWGQGTQVTVSS", "high polyreactivity"),
    ("QVQLVESGGGLVQAGGSLRLSCAASGRTFGYNTMGWYRQAPGKERELVATISRGGSTYYADSVKGRFTISRDNAKNTVYLQMNSLKPEDTAVYYCRYQSRFRYDYWGQGTQVTVSS", "high polyreactivity"),
    ("QVQLVESGGGLVQAGGSLRLSCAASGITFGRKTMGWYRQAPGKERELVAAIDSGGNTYADSVKGRFTISRDNAKNTVYLQMNSLKPEDTAVYYCAVDGGVFSSYGYWGQGTLVTVSS", "low polyreactivity"),
    ("QVQLVESGGGLVQAGGSLRLSCAASGSTFVRNAMGWYRQEPGKERELVANISSGGGTKYADSVKGRFTISRDNAQNTVYLQMNSLKPEDTAVYYCAKRTIYSGRFYYWGQGTQVTVSS", "high polyreactivity"),
    ("QVQLVESGGGLVQAGGSLRLSCAASGFTFTNYAMGWYRQAPGKEREFVARITWSGGSTYYADSVKGRFTISRDNAKNTVYLQMNSLKPEDTAVYYCAARGWLVRSFIYDYWGQGTQVTVSS", "high polyreactivity"),
    ("QVQLVESGGGLVQAGGSLRLSRAASGGTFFVYMGWYRQAPGKERELVADISGSGGGTYYADSVKGRFTISRDNAKNTVYLQMNSLKPEDTAVYYCATDVPTGIIRMYWGQGTQVTVSS", "low polyreactivity"),
    ("QVQLVESGGGLVQAGGSLRLSCAASGIIFRPYTMGWYRQAPGKERELVAAISQSGGRTYYADSVKGRFTISRDNAKNTVYLQMNSLKPEDTAVYYCNVLGSYSYYPWPIPGYDYWGQGTQVTVSS", "high polyreactivity"),
    ("QVQLVESGGGLVQAGGSLRISCAASGFTVWGYAMGWYRQAPGKERELVAGITTRGGSTYYADSVKGRFTISRDNAKNTVYLQMNSLKPEDTAVYYCNVVSSTRTYRYDYWGQGTQVTVSS", "high polyreactivity"),
    ("QVQLVESGGGLVQAGGSLRLSCAASGYIFSYNAMGWYRQAPGKERELVAAITASGGGTYYADSVKGRFTISRDNAKNTVYLQMNSLKPDDTAVYYCAATPYSTQGLRPKFDYWGQGTQVTVSS", "low polyreactivity"),
    ("QVQLVESGGGLVQAGGSLRLSCAASGRIRFYARGWYRQAPGKEREFVASITRSGGSTYYADSVKGRFTISRDNAKYTVYLQMNSLKPEDTAVYYCAADDYFHDDYWGQGTQVTVSS", "high polyreactivity"),
]

Numbers sourced from the nanobody polyreactivity screen of Harvey et al. (2022).
